Examples of compounds with documented melting point follow.

Sample records with melting point:
compound	melting point
O=Cc1c2ccccc2c(Cl)c2cccc(Cl)c12	180 to 183 °C
CCCCCCCCCCCC(=O)NC(C)c1c[nH]c(CCCCCCCCCCC)n1 (stereo not given)	56 to 59 °C
Cc1c(-c2ncc([N+](=O)[O-])n2C)cnn1-c1ccc(Cl)cc1	164 °C
Cc1c(N2CCC(N(C)C)C(C)(C)C2)c(F)cc2c(=O)c(C(=O)O)cn(C3CC3)c12 (stereo not given)	209 to 210 °C
COc1ccc2ccc3c(c2c1)C(CC#N)CCO3 (stereo not given)	122 to 123 °C
Nc1ccc(/C=C/c2ccccc2)cc1	151 °C

Can you share its melting point? I mean this compound: CC(C)(C)OC(=O)N[C@@H](CCC(=O)OCc1ccccc1)C(=O)OCc1ccccc1 73 to 76 °C

Reported melting point for Cc1nn(-c2cc(Oc3ccc(C(=O)O)cc3)c(Cl)cc2F)c(=O)n1C(F)F : what is it? 184 to 185 °C

Look up melting point for this compound: COc1ccc2c(c1)C1=C(SCC3(CCNCC3)O1)C(=O)C2=O 224 to 226 °C

GET /values?readout=melting point&item= C[Si](C)(C)C#Cc1c(F)c(F)c(F)c(C#C[Si](C)(C)C)c1F 55 to 57 °C

Origin of measurements: a melting point compilation (Tetko et al.; mined from patent text by program, amines drawn as free bases though some values may be those of a salt)
